Test system: BT-549 breast
Test: NCI tumour cell line growth inhibition, 48 h
recorded endpoint: TGI

q: Checklist item: TGI tested on BT-549 breast, entry COC(=O)C(Cc1c(-c2[nH]c3ccccc3c2CC(NC(C)=O)C(=O)OC)[nH]c2ccccc12)NC(C)=O (centres undefined) , value?
a: > 100 µM

q: Checklist item: TGI tested on BT-549 breast, entry "CCN1C[C@@H](C)n2c(c(O)c3c(=O)n(Cc4ccc(F)c(Cl)c4)nc(C(=O)NC)c32)C1=O" , value?
a: > 100 µM

q: Checklist item: TGI tested on BT-549 breast, entry CN1CCOC1(C)c1ccccc1 (centres undefined) , value?
a: > 100 µM

q: Checklist item: TGI tested on BT-549 breast, entry "N#C/C(=C\c1ccc(O)c(O)c1)C(=O)NCc1cccc(C(F)(F)F)c1" , value?
a: 34.4 µM

Further cases:
q: Checklist item: TGI tested on BT-549 breast, entry "O=C(c1ccc(Cl)c(Cl)c1)N(C(=S)OC12CC3CC(CC(C3)C1)C2)c1ccccc1" , value?
a: > 100 µM

q: Checklist item: TGI tested on BT-549 breast, entry "C=C1CC[C@@](C)(c2cc(Br)c(C)cc2OC(C)=O)[C@H]1C" , value?
a: 34.1 µM

q: Checklist item: TGI tested on BT-549 breast, entry "O=c1c2ccccc2nc(-c2ccccc2)n1/N=C/c1ccccc1[N+](=O)[O-]" , value?
a: > 100 µM

q: Checklist item: TGI tested on BT-549 breast, entry "Nc1ncc(-c2ccc3ncnc(N4CCc5cc(F)c(Cl)cc54)c3c2)cc1C=O" , value?
a: > 100 µM

q: Checklist item: TGI tested on BT-549 breast, entry C[C@H]1[C@H]2[C@H](C[C@@]3(C)C4=CC[C@H]5C(C)(C)[C@@H](OC6OCC(O)C(O)C6O)CC[C@@]56C[C@@]46CC[C@]23C)O[C@@]2(O)[C@@H]1OC(C)(C)[C@H]2O (some centres undefined) , value?
a: 8.78 µM

###

System: SF-295 CNS
Experiment: NCI tumour cell line growth inhibition, 48 h; in the data active = GI50 below about 0.43 µM; inactive = the rest
Output constraint: value belongs to True (active), False (inactive)

q: Which result was noted for this compound in the test: "Cc1ccc(/C=C(/C#N)n2nnc3cccc(F)c32)cc1"
a: True

q: Which result was noted for this compound in the test: "Cc1cc2c3c(nc4ccccc42)C(=O)c2cccnc2-c3n1"
a: False

q: Which result was noted for this compound in the test: "Cc1ccc2c(-c3ccnc(Nc4cccc(C(F)(F)F)c4)n3)c(-c3ccccc3)nn2n1"
a: False

q: Which result was noted for this compound in the test: "O=C(NNC1=NS(=O)(=O)c2ccccc2N1c1ccccc1)c1cnccn1"
a: False

q: Which result was noted for this compound in the test: "CN1CCC(=C(c2ccc(Cl)cc2)c2ccccn2)CC1"
a: False

q: Which result was noted for this compound in the test: "Cc1cc2c(C(C)C)c(O)c(O)c(/C=N/O)c2c(O)c1-c1c(C)cc2c(C(C)C)c(O)c(O)c(/C=N/O)c2c1O"
a: False

q: Which result was noted for this compound in the test: "Cc1ncnc2c1ccn2[C@@H]1C[C@H](Oc2cc(C(F)F)c(F)c3c2CNCC3)[C@@H](O)[C@H]1O"
a: False

q: Which result was noted for this compound in the test: "COC(=O)COc1ccccc1/C=C1/N=C(c2ccccc2)N(c2c(C)n(C)n(-c3ccccc3)c2=O)C1=O"
a: False

q: Which result was noted for this compound in the test: "CN1CCN(CCCCCOc2cc(O)c3c(=O)cc(-c4ccccc4)oc3c2)CC1"
a: False

q: Which result was noted for this compound in the test: "CN(C)C/C=C/C(=O)Nc1ccc(C(=O)Nc2cccc(Nc3ncc(Cl)c(-c4c[nH]c5ccccc45)n3)c2)cc1"
a: True

Further cases:
q: Which result was noted for this compound in the test: "[pH]1p2[pH]p3p1p3[pH]2.c1cc[c]([Ge]([c]2ccccc2)[c]2ccccc2)cc1.c1cc[c]([Ge]([c]2ccccc2)[c]2ccccc2)cc1.c1cc[c]([Ge]([c]2ccccc2)[c]2ccccc2)cc1"
a: False

q: Which result was noted for this compound in the test: C/C=C(/C)C(=O)OC1C=C(CO)C(=O)C(OC(=O)C2(C)OC2C)C1C(C)C (stereo unspecified)
a: False

q: Which result was noted for this compound in the test: Fc1ccc(C2CC(c3cccc(Nc4ccncc4)c3)=NN2c2ccccc2)cc1 (stereo unspecified)
a: False

q: Which result was noted for this compound in the test: "CCN(CC)Cc1cc(Nc2ccnc3ccc(OC)cc23)ccc1O"
a: False

q: Which result was noted for this compound in the test: "Cn1ccc(S(=O)(=O)N2CCC[C@H](Nc3nccc(-c4c(-c5cccc(O)c5)nc5occn45)n3)C2)n1"
a: False

q: Which result was noted for this compound in the test: "CCNCCS(=O)(=O)NC[C@@]1(c2ccccc2)SC(NC(=O)C(C)(C)C)=NN1C(=O)C(C)(C)C"
a: True

###

Test system: RPMI-8226 leukemia
Assay: NCI tumour cell line growth inhibition, 48 h
recorded endpoint: TGI

Example cases with answers are listed next.
q: Checklist item: TGI tested on RPMI-8226 leukemia, entry O=C(CC(=O)N1N=C(n2ccc3ccccc32)CC1c1ccccc1)Nc1ccccc1Cl (stereo not given) , value?
a: > 100 µM

q: Checklist item: TGI tested on RPMI-8226 leukemia, entry CCOC(=O)C(Cc1ccccc1)n1c(O)c(/C=N/c2ncc(Cc3ccc(Cl)cc3Cl)s2)sc1=S (stereo not given) , value?
a: > 100 µM

q: Checklist item: TGI tested on RPMI-8226 leukemia, entry "CC(C)(Oc1cccc(N2CCC[C@@H](C(=O)N(Cc3ccc(-c4cn[nH]c4)cc3)C3CC3)C2)c1)C(=O)N1CCNCC1" , value?
a: 31.3 µM

q: Checklist item: TGI tested on RPMI-8226 leukemia, entry "O=C(Oc1ccc(C(c2c(O)c3ccccc3oc2=O)c2c(O)c3ccccc3oc2=O)cc1)c1ccc(C(=O)c2ccccc2)cc1" , value?
a: 56.5 µM

q: Checklist item: TGI tested on RPMI-8226 leukemia, entry "C=C(Cl)[C@](Cl)(CBr)CC[C@@H](Br)C(C)(C)Cl" , value?
a: 0.363 µM

q: Checklist item: TGI tested on RPMI-8226 leukemia, entry "COc1cccc(N2C(=N)/C(=C3\Nc4ccccc4S3)CC2=O)c1" , value?
a: > 100 µM

q: Checklist item: TGI tested on RPMI-8226 leukemia, entry "CN1C(=O)[C@@H](CC2CCCC2)N(C2CCCC2)c2nc(Nc3cc(Cl)c(O)c(Cl)c3)ncc21" , value?
a: 49 µM

q: Checklist item: TGI tested on RPMI-8226 leukemia, entry "O=C(O[C@H](/C=C/c1ccccc1)P1(=O)N(Cc2ccccc2)[C@H]2CCCC[C@@H]2N1Cc1ccccc1)c1ccccc1" , value?
a: 17.8 µM

Further cases:
q: Checklist item: TGI tested on RPMI-8226 leukemia, entry CC(=O)OC1CCn2c1nc1c2C(=O)C=C(N2CC2)C1=O (stereo not given) , value?
a: 1.37 µM

q: Checklist item: TGI tested on RPMI-8226 leukemia, entry "COc1ccc(/C=N/NS(=O)(=O)c2ccc(/C=C3\NC(=O)NC3=O)cc2)cc1" , value?
a: > 100 µM

q: Checklist item: TGI tested on RPMI-8226 leukemia, entry "CCOC(=O)CCCc1cc(=O)c2c(C)c3[nH]c4ccc(Cl)cc4c3c(C)c2[nH]1" , value?
a: > 100 µM

q: Checklist item: TGI tested on RPMI-8226 leukemia, entry "CCP(C)(=O)CC" , value?
a: > 100 µM

q: Checklist item: TGI tested on RPMI-8226 leukemia, entry "COc1ccc(/C(=N/Nc2nc3ccccc3n2Cc2ccccc2)C(=O)O)cc1" , value?
a: 55.8 µM

q: Checklist item: TGI tested on RPMI-8226 leukemia, entry C/C=C(/C)C(=O)OC1C=C(CO)C(=O)C(OC(=O)C2(C)OC2C)C1C(C)C (stereo not given) , value?
a: 5.17 µM

q: Checklist item: TGI tested on RPMI-8226 leukemia, entry "CC(=O)Nn1c(Cc2ccc(Cl)cc2)nn(C)c1=O" , value?
a: > 100 µM

q: Checklist item: TGI tested on RPMI-8226 leukemia, entry CC(C)=NC(C(=O)O)C(C)(C)S (stereo not given) , value?
a: > 100 µM

q: Checklist item: TGI tested on RPMI-8226 leukemia, entry Nc1nc2c(ncn2C2OC(CO)C(O)C2O)c(=O)o1 (stereo not given) , value?
a: > 100 µM

q: Checklist item: TGI tested on RPMI-8226 leukemia, entry "Cc1cc2c(cc1Cl)SC(NNC(=O)c1ccccc1)=NS2(=O)=O" , value?
a: > 10 µM

q: Checklist item: TGI tested on RPMI-8226 leukemia, entry COC(=O)C1=C(C)N(NC(N)=O)C2(N)N(NC(N)=O)C(C)=C(C(=O)OC)C12C#N (stereo not given) , value?
a: > 100 µM

q: Checklist item: TGI tested on RPMI-8226 leukemia, entry "CCN(CC)CCC(=O)c1ccc(Cl)c(Cl)c1" , value?
a: > 100 µM

q: Checklist item: TGI tested on RPMI-8226 leukemia, entry "CSc1ncc2c(C#N)c3n(C)c4ccccc4n3c(=O)c2n1" , value?
a: > 100 µM

q: Checklist item: TGI tested on RPMI-8226 leukemia, entry "O=C(CC(O)(C(F)(F)F)C(F)(F)F)c1cccs1" , value?
a: > 10 µM

q: Checklist item: TGI tested on RPMI-8226 leukemia, entry "c1ccc(CN2C3C4N(Cc5ccccc5)C2C2N(Cc5ccccc5)C(C(N2Cc2ccccc2)N4Cc2ccccc2)N3Cc2ccccc2)cc1" , value?
a: > 100 µM

q: Checklist item: TGI tested on RPMI-8226 leukemia, entry "Cc1cc(N(C)c2ccccc2)nc(N(C)c2ccccc2)n1" , value?
a: 65.1 µM

q: Checklist item: TGI tested on RPMI-8226 leukemia, entry COc1ccc(/C=C/c2cc(O)cc(OC3OC(CO)C(O)C(O)C3O)c2)cc1O (stereo not given) , value?
a: > 100 µM

q: Checklist item: TGI tested on RPMI-8226 leukemia, entry NC(N)=NCCCC(Nc1c2ccccc2nc2ccccc12)C(=O)O (stereo not given) , value?
a: > 100 µM

q: Checklist item: TGI tested on RPMI-8226 leukemia, entry "Cc1ccc(N=NC(=O)NNc2ccc(C)cc2Br)c(Br)c1" , value?
a: 66.5 µM

q: Checklist item: TGI tested on RPMI-8226 leukemia, entry "O=c1c2ccccc2nc(-c2ccccc2)n1/N=C/c1ccccc1[N+](=O)[O-]" , value?
a: > 100 µM

q: Checklist item: TGI tested on RPMI-8226 leukemia, entry "O=C(Cn1c2ccc(Br)cc2c2nc3ccccc3nc21)NNC(=O)NC1CCCCC1" , value?
a: > 100 µM

q: Checklist item: TGI tested on RPMI-8226 leukemia, entry "Cc1c(C(=O)/C=C/c2ccc([N+](=O)[O-])cc2)[n+](=O)c2ccccc2n1[O-]" , value?
a: > 100 µM
